measurement_protocol: Safety index, ratio of IC50 for human HepG2 cells to IC50 for […] 29-13
Format: toxicity, cell-based
experimental_parameters: read-out: Ratio IC50
Kindly state selectivity ratio for each of the entries shown.
Number only, no unit.

Q: Give its selectivity ratio value. Item: `O=[N+]([O-])c1ccc(CNCCNCc2ccc([N+](=O)[O-])cc2)cc1`
A: 30.7

Q: Reported selectivity ratio, compound `COc1ccc(CNCCNCc2ccc(OC)cc2)cc1` : ____
A: 115

Q: # input compound: `Cl.Cl.c1ccc(CNCCNCc2ccccc2)cc1` ; wanted: its selectivity ratio
A: 22.4

Q: Which selectivity ratio is reported for this compound? `Oc1ccccc1CNCCNCc1ccccc1O`
A: 28.7

Q: I am curious: what selectivity ratio value has been reported for `Clc1ccc(CNCCNCc2ccc(Cl)cc2Cl)c(Cl)c1` ?
A: 16.7

Q: Find the recorded selectivity ratio belonging to N=C(N)c1ccc(OCCCCCOc2ccc(C(=N)N)cc2)cc1 [PENTAMIDINE] and report it.
A: 24.8

Q: Given the entry O=C(Cn1ccnc1[N+](=O)[O-])NCc1ccccc1 [BENZNIDAZOLE] , report its measured selectivity ratio.
A: 14.2
